Provenance of the data: patent US20060018970A1

experiment: clinical; settings: human, in vivo, plasma concentration, Max
readout_type: concentration at 2 h (ng/mL)

| structure | numeric_value |
| --- | --- |
| CSc1ccc(C(=O)c2[nH]c(=O)[nH]c2C)cc1 | 400 |

###

assay: clinical; settings: human, plasma, 50 mg, Patient 5, dose 50 mg, 6 HR

| structure | concentration at 6 h |
| --- | --- |
| CSc1ccc(C(=O)c2[nH]c(=O)[nH]c2C)cc1 | 166 ng/mL |

###

assay: clinical; conditions: human, plasma, 50 mg, Max, 2 hrs, after dosing of enoximone, 5 patients, raw data

| molecule | concentration at 2 h, ng/mL |
| --- | --- |
| CSc1ccc(C(=O)c2[nH]c(=O)[nH]c2C)cc1 [enoximone] | 383 |

###

assay: clinical; settings: human, plasma, 50 mg, Patient 3, dose 50 mg, PREDOSE
readout_type: concentration at 0 h (ng/mL)

| compound | readout_type | numeric_value |
| --- | --- | --- |
| CSc1ccc(C(=O)c2[nH]c(=O)[nH]c2C)cc1 [enoximone] | concentration at 0 h | 34.4 |

###

assay: clinical; conditions: human, plasma, 50 mg, Patient 3, dose 50 mg, 6 HR
readout_type: concentration at 6 h (ng/mL)

| structure | readout_units | numeric_value |
| --- | --- | --- |
| CSc1ccc(C(=O)c2[nH]c(=O)[nH]c2C)cc1 | ng/mL | 71.7 |

###

assay: clinical; details: human, plasma, 50 mg, Patient 5, dose 50 mg, 4 HR
readout_type: concentration at 4 h (ng/mL)

| structure | numeric_value |
| --- | --- |
| CSc1ccc(C(=O)c2[nH]c(=O)[nH]c2C)cc1 | 268 |

###

assay: clinical; conditions: human, plasma, 25 mg, Patient 4, dose 25 mg, 0.5 HR
readout_type: concentration at 0.5 h (ng/mL)

| molecule | readout_type | numeric_value |
| --- | --- | --- |
| CSc1ccc(C(=O)c2[nH]c(=O)[nH]c2C)cc1 [enoximone] | concentration at 0.5 h | 23.7 |

###

test: clinical; conditions: human, plasma, 50 mg, Patient 3, dose 50 mg, 4 HR

| compound | concentration at 4 h, ng/mL |
| --- | --- |
| CSc1ccc(C(=O)c2[nH]c(=O)[nH]c2C)cc1 [enoximone] | 78.2 |

###

experiment: clinical; settings: human, plasma, 50 mg, Patient 5, dose 50 mg, PREDOSE

| molecule | concentration at 0 h, ng/mL |
| --- | --- |
| CSc1ccc(C(=O)c2[nH]c(=O)[nH]c2C)cc1 [enoximone] | 149 |

###

assay: clinical; conditions: human, plasma, 50 mg, Patient 2, dose 50 mg, 4 HR

| structure | readout_units | concentration at 4 h |
| --- | --- | --- |
| CSc1ccc(C(=O)c2[nH]c(=O)[nH]c2C)cc1 | ng/mL | 237 |

###

assay: clinical; conditions: human, plasma, Max, 4 hrs, after dosing of enoximone, 5 patients, raw data
readout_type: concentration at 4 h (ng/mL)

| compound | readout_units | numeric_value |
| --- | --- | --- |
| CSc1ccc(C(=O)c2[nH]c(=O)[nH]c2C)cc1 [enoximone] | ng/mL | 268 |
